Origin of values: patent US20180334496A1

- assayed-target: T1, recombinant cynomolgus CFD, His-tagged (cynomolgus)
- T1 construct: also called rcyCFD-His; recombinant Cyno-CFD
- protocol-description: SPR MX96
reported-property: pKd
Quick note: pKd values are minus log10 of concentrations in mol/L.

Please review the entries below; each comes with its answer.
Prompt: Can you look up the measured pKd of KCD010 (antibody, V domains shown, chimeric) VH: EVLLQQSGPELVKPGASVKIPCKASGYTFTDYDMDWVKQSHGKSLEWIGHINPNNGGTIYNQKFKGKATLTVDKSSSTAYMELRSLTSEDTAVYYCGTGDFAYWGHGTLVTVSA VL: QIVLTQSPAIMSVSPGEKVTLTCSASSSVSSSYLYWYQKKPGSSPKLWIYSTSNLASGVPARFSGSGSGTSYSLTISSMEAEDAASYFCHQWSSYPPTFGAGTKLELK for me?
Completion: 8.54

Prompt: Would you mind doing KCD004 (antibody, V domains shown, also called OG2063) VH: EVQLQQSGAELVRPGSSVKMSCKTSGKTFTSHGINWVKQRPGQGLEWIGYIYIGNGYNEYNEKFKGKATLTSDTSSSTAYMQLSSLTFEDSAIYFCVRKAYGNYGFDDWGQGTTLTVSS VL: DIQMTQSPTSLSASLGESVSLTCRASQEISGYLNWLQQKPDGSIKRLIYAASTLDSGVPKRFSGSRSGSDYSLTISSLESEDFADYYCLQYANYPFTFGSGTKLEVK as well?
Completion: 9.04

Prompt: Would you mind doing KCD002 (antibody, V domains shown, chimeric) VH: EVKLVESEGGLVQPGSSMKLSCTASGFTFSDYYMAWVRQVPEKGLEWVGNINYDGSSTYYLDSLKSRFIISRDSAKNILYLQMSSLKSEDTATYFCARGEDFYLYAMDYWGQGTSVTVSS VL: DIQMTQSPASLSASVGETVTITCRASENIHSYLAWYQQKQGKSPQLIVYNTKTLAEGVPSRFSGSGSGTQFSLKINSLQPEDFGSYYCQHHYGIPPTFGGGTKLEIK as well?
Completion: 9.39

***
Prompt: Can you look up the measured pKd of KCD229 (antibody, V domains shown) VH: EVQLVESGGGLVQPKGSLKLSCAASGFSFNTYAMNWVRQAPGKGLEWVARIRSKSNNYATYYADSVKDRFTIFRDDSESMLYLQMNNLKTEDTAMYYCVRHGYYWYFDVWGTGTTVTVSS VL: DVLMTQNPLSLPVSLGDQASISCRSSQSIVHSNGNTYLEWYLQKPGQSPNLLIYNVFNRFSGVPDRFSGSGSGTDFTLKISRVEAEDLGVYYCFQGSHVPYTFGSGTKLEIK for me?
Completion: 8.80
